Assay: Mouse pharmacokinetics, i.v. and oral
Details: male, C57/BL6, mouse, whole blood, iv, 2 mg/kg
measuredEndpoint: clearance (mL/min/kg)
Give the value in mL/min/kg but do not write mL/min/kg after it.

Prompt: Which clearance value belongs to Cc1cc(Nc2ccc(F)cc2)n(-c2nc(C(F)(F)F)cc(=O)[nH]2)n1 [Compound 40] ?
Completion: 0.4

====

Test system: WT H37Rv
Assay: microbe, parasite or virus in culture
Assay type: cell-based, M. tuberculosis
Conditions: Mycobacterium tuberculosis, experiment: Initial
measuredEndpoint: MIC50 (µM)
Give the value in µM but do not write µM after it.

Prompt: Which MIC50 value belongs to `Cc1cc(Nc2ccc(F)cc2)n(-c2nc(C(F)(F)F)cc(=O)[nH]2)n1` ?
Completion: 0.3

Prompt: Do the same for `CCNc1cc(C)nn1-c1nc(-c2cccnc2)cc(=O)[nH]1` please
Completion: 2.5

Prompt: Do the same for `Cc1cc(C)n(-c2nc(O)cc(-c3ccccc3)n2)n1` please
Completion: 0.26

Prompt: Do the same for `Cc1cc(C)n(-c2nc(C(F)(F)F)cc(=O)[nH]2)n1` please
Completion: 4.5

Prompt: Do the same for CC(C)=CCC/C(C)=C/CNCCNC1C2CC3CC(C2)CC1C3 (stereo not shown) [SQ109, reference compound] please
Completion: 0.39

Prompt: Do the same for `COCCNc1cc(C)nn1-c1nc(C(F)(F)F)cc(=O)[nH]1` please
Completion: 0.46

Prompt: Do the same for CC[C@@H](CO)NCCN[C@@H](CC)CO [Ethambutol, reference compound] please
Completion: 0.98

====

Experiment: Mouse pharmacokinetics, i.v. and oral
Settings: male, C57/BL6, mouse, whole blood, iv, 2 mg/kg
Task for the reader: assign each of the following compounds its reported AUC(0-inf).
State the value, then name its unit.

Prompt: Which AUC(0-inf) value belongs to `CCNc1cc(C)nn1-c1nc(-c2cccnc2)cc(=O)[nH]1` ?
Completion: 1.52 µM·h

Prompt: Do the same for `Cc1cc(Nc2ccc(F)cc2)n(-c2nc(C(F)(F)F)cc(=O)[nH]2)n1` please
Completion: 256 µM·h

====

Experiment: Mouse pharmacokinetics, i.v. and oral
Conditions: male, C57/BL6, mouse, whole blood, iv, 2 mg/kg
measuredEndpoint: AUC(0-inf) at 24 h (µM·h)
Give the value in µM·h but do not write µM·h after it.

Prompt: Which AUC(0-inf) at 24 h value belongs to `Cc1cc(C)n(-c2nc(C(F)(F)F)cc(=O)[nH]2)n1` ?
Completion: 48.8

====

Task for the reader: assign each of the following compounds its reported Cmax.
Assay: Mouse pharmacokinetics, i.v. and oral
Details: male, C57/BL6, mouse, whole blood, iv, 2 mg/kg
Give the value in µM but do not write µM after it.

Prompt: Which Cmax value belongs to `CCNc1cc(C)nn1-c1nc(-c2cccnc2)cc(=O)[nH]1` ?
Completion: 2.4

Prompt: Do the same for `Cc1cc(Nc2ccc(F)cc2)n(-c2nc(C(F)(F)F)cc(=O)[nH]2)n1` please
Completion: 33.1

====

Test system: mmpL3-TetON
Experiment: microbe, parasite or virus in culture
Type: cell-based, M. tuberculosis
Settings: Mycobacterium tuberculosis, experiment: Initial
measuredEndpoint: log10 of MIC50 (log10 of the value in µM)
Form field - Quantity: MIC50; Unit: µM; Scale: log10

Prompt: Which log10 of MIC50 value belongs to Cc1cc(Nc2ccc(F)cc2)n(-c2nc(C(F)(F)F)cc(=O)[nH]2)n1 [Compound 40] ?
Completion: -0.74

Prompt: Do the same for CC[C@@H](CO)NCCN[C@@H](CC)CO [Ethambutol, reference compound] please
Completion: 0.11

Prompt: Do the same for Cc1cc(C)n(-c2nc(O)cc(-c3ccccc3)n2)n1 [Compound 1] please
Completion: -0.54

Prompt: Do the same for CCNc1cc(C)nn1-c1nc(-c2cccnc2)cc(=O)[nH]1 [Compound 47] please
Completion: 0.32

Prompt: Do the same for CC(C)=CCC/C(C)=C/CNCCNC1C2CC3CC(C2)CC1C3 (stereo not shown) [SQ109, reference compound] please
Completion: -1.15

Prompt: Do the same for Cc1cc(C)n(-c2nc(C(F)(F)F)cc(=O)[nH]2)n1 [Compound 12] please
Completion: 0.68

Prompt: Do the same for COCCNc1cc(C)nn1-c1nc(C(F)(F)F)cc(=O)[nH]1 [Compound 38] please
Completion: -0.33
